TARGET OR SYSTEM: DHX33 protein (Mus musculus, UniProt Q80VY9)
Construct: purified full-length DHX33 protein
Sequence (Q80VY9 1-698): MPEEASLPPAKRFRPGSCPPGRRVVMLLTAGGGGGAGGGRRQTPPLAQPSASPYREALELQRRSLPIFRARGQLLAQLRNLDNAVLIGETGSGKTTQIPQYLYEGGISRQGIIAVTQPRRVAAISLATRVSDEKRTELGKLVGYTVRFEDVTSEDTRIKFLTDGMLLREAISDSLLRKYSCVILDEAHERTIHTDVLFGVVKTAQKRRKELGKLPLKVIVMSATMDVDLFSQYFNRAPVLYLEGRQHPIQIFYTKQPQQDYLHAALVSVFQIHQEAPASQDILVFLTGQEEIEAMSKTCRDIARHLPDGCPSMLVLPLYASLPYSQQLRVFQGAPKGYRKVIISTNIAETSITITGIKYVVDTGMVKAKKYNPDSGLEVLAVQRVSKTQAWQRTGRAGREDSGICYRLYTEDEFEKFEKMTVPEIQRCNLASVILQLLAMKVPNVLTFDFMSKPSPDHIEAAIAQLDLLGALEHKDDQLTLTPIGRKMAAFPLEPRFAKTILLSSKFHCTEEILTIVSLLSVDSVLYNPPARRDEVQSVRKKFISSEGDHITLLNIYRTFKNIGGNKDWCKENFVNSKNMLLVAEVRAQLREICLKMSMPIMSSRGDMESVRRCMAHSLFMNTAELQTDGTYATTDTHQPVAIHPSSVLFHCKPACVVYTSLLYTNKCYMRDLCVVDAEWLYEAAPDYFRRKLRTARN
ASSAY TEXT: Inhibition of the helicase activity of DHX33 protein in vitro
CONDITION DETAILS: recombinant DHX33 protein, compound 1-1000 nM, 37° C., 60 minutes; read-out: IC50 (inhibitory effects of the compounds on the helicase activity of DHX33 protein)
Description: Biochemistry. 2019:58 (4):250-8. RNA helicase gene (mouse DHX33 gene) was cloned into a pET32M-3C vector (between BamH I/Not I restriction sites). Afterward, the plasmid was transformed into BL-21pLysS (DE3) E. coli. […] The components involved in the reaction for testing the helicase activity were added to a 96-well opaque white plate. […] The remaining DIG-AP marker control in each well was counted for 10 minutes by a luminescence multi-well plate reader (Enspire, PerkinElmer). […]
pIC50: −log10 of the molar value.
QUANTITY KIND: pIC50

Cc1cc(/C=C(\C#N)c2nc3ccccc3[nH]2)c(C)n1-c1oc(-c2ccccc2)cc1C#N [AB24283]    6.40 to 7.00
COc1ccc2nc(/C(C#N)=C/c3cc(C)n(-c4sc(C)cc4C#N)c3C)[nH]c2c1 [AB24321]    > 7.70
COc1cc2nc(/C(C#N)=C/c3cc(C)n(-c4oc(C)c(C)c4C#N)c3C)[nH]c2cn1 [AB24254]    > 7.70
Cc1oc(-n2c(C)cc(/C=C(\C#N)c3nc4ccccc4[nH]3)c2C)c(C#N)c1C [Compound as control, reference compound]    6.00 to 6.40
COc1ccc2nc(NC(=O)c3cc(C)n(-c4sc(C)cc4C(N)=O)c3C)[nH]c2c1 [AB24387]    7.00 to 7.70
COc1cc2nc(/C(C#N)=C/c3cc(C)n(-c4sc(C)cc4C#N)c3C)[nH]c2cn1 [AB24288]    > 7.70
COc1cc2nc(/C(C#N)=C/c3cnc(-c4ccccc4)n3C)[nH]c2cn1 [AB29511]    6.00 to 6.40

Short answer please: pIC50, DHX33 protein (Mus musculus, UniProt Q80VY9), entry Cc1cc(C#N)c(-n2c(C)cc(/C=C(\C#N)c3nc4ccccc4[nH]3)c2C)s1 [AB24270] 7.00 to 7.70

Reference source: patent US20230146233A1
